- assayedSystem: Aldehyde dehydrogenase 1A1 (Homo sapiens) (UniProt P00352)
- procedureDetails: qHTS for Inhibitors of the Aldehyde Dehydrogenase Family (ALDH1A1) Confirmatory screens (AID 2061316); also: nearly all actives have a fitted effect of over 65% in size
- condition: ALDH inhibition qHTS; series mostly up to 47.3 µM
Results filed as inconclusive are left out. The source made the active and inactive calls. Calls follow the shape of the dose curve; as a rule, active = well fitted inhibition curve with a large enough effect; inconclusive = small, poorly fitted or top-dose-only effect; inactive = no such curve, though single readings can be large or run the other way.
Write down the outcome that applies. Available outcomes: active, inactive

Could you check what this test reported for C=CC(=O)N1CCN(C(=O)CNc2cc(I)c(Cl)cc2O)CC1 ?
active

Please let me know the test result on file for CN(Cc1ncc[nH]1)c1ncnc2ccc(-c3ccc4c(c3)OCO4)cc12 .
inactive

How did this test come out for COc1ccc(C[C@H](N)C(=O)N[C@H]2[C@@H](O)[C@H](n3cnc4c(N(C)C)ncnc43)O[C@@H]2CO)cc1 ?
inactive

###

- procedureDetails: BET inhibitor-based combinations targeting novel dependencies in MECOM-rearranged (r) AML: MV-4-11 cell line (AID 2202233); also: nearly all actives have a fitted effect of over 45% in size
- condition: MV-4-11 AML viability, CellTiter-Glo luminescence, 48 h; series mostly up to 46 µM
Inconclusive results are not listed. Active and inactive are the calls of the source. Calls follow the shape of the dose curve; as a rule, active = well fitted inhibition curve with a large enough effect; inconclusive = small, poorly fitted or top-dose-only effect; inactive = no such curve, though single readings can be large or run the other way.
Select the matching outcome among label 1 (active), label 0 (inactive)

Hi, do you know how CN1CCc2c(n(Cc3ccc(C(=O)NO)cc3)c3ccccc23)C1 came out in this test?
label 1

Answer briefly: the call reported for CC[C@@]1(O)C(=O)OCc2c1cc1n(c2=O)Cc2cc3c(CN(C)C)c(O)ccc3nc2-1 in this assay.
label 1

Lab log entry: CN(CCOc1ccc(NS(C)(=O)=O)cc1)CCc1ccc(NS(C)(=O)=O)cc1 — outcome as called in the assay?
label 0

Which outcome was assigned to NC(=O)c1ccc(N(C(N)=O)c2c(F)cccc2F)nc1-c1ccc(F)cc1F in this test?
label 0

Record request — test call for Oc1c(Cl)cc(Cl)c2cccnc12
label 1

Short answer needed: outcome of this test for CCOC(=O)C1=C[C@@H](OC(CC)CC)[C@H](NC(C)=O)[C@@H](N)C1 ?
label 0

Recorded test outcome, item CC(C)(OCc1nn(Cc2ccccc2)c2ccccc12)C(=O)O
label 0

GET /call?item= COc1cc(N2CCN(C)CC2)ccc1Nc1nccc(-c2cn(C)c3cnccc23)n1 returns the recorded outcome of this test.
label 1

Just curious, what result did C=C1C[C@@]2(O)O[C@@]3(C[C@H]2C(C)C)[C@@H](C)CC[C@@H]13 get here?
label 0

// param item: CN(C)c1ccc2cc(C(=O)N[C@@H](CCCN=C(N)CCl)C(=O)NCc3ccccc3)ccc2c1 ; yields the recorded call
label 0

###

- assayedSystem: Cellular tumor antigen p53 (Homo sapiens)
- procedureDetails: Primary qHTS for small molecule compounds that upregulate eGFP-tagged delta133p53alpha (in N-terminal) cells. (AID 2060322); also: potency is read from the fitted curve at half-maximal effect; nearly all actives have a fitted effect of over 75% in size
- condition: NCI-H358 eGFP-delta133p53alpha fluorescence, 24 h
Results filed as inconclusive are left out. The source made the active and inactive calls. Calls come from the whole dose curve; as a rule, active = well fitted activation curve with a large enough effect; inconclusive = small, poorly fitted or top-dose-only effect; inactive = no such curve, though single readings can be large or run the other way.
reportedProperty: Potency

Fill in the recorded Potency for this molecule, with Cellular tumor antigen p53 (Homo sapiens) as test system: C[C@@H]1CN(CC(=O)Nc2ccc3c(c2)Cc2cccc(-c4cc(=O)cc(N5CCOCC5)o4)c2S3)C[C@H](C)O1
27.3 µM (active)

Please provide the recorded Potency for C[C@H]1O[C@@H](O[C@H]2CC[C@@]3(C)[C@H](CC[C@@H]4[C@@H]3C[C@@H](O)[C@]3(C)[C@@H](C5=CC(=O)OC5)CC[C@]43O)C2)C[C@H](O)[C@@H]1O[C@H]1C[C@H](O)[C@H](O[C@H]2C[C@H](O)[C@H](O[C@@H]3O[C@H](CO)[C@@H](O)[C@H](O)[C@H]3O)[C@@H](C)O2)[C@@H](C)O1 , tested on Cellular tumor antigen p53 (Homo sapiens).
1.55 µM (active)

Please state recorded Potency (tested on Cellular tumor antigen p53 (Homo sapiens)) of Cc1ccc(C(=O)Nc2ccc(Oc3cc4cnn(C)c4cc3-c3cn[nH]c3)c(F)c2)c(=O)n1-c1ccc(F)cc1
15.1 µM (active)

Requested read-out Potency, target or system Cellular tumor antigen p53 (Homo sapiens), entry CCN(CC)CCNC(=O)c1c(C)[nH]c(C=C2C(=O)Nc3ccc(F)cc32)c1C
12.5 µM (active)

Recall the recorded Potency for CN1CCN(Cc2ccc(NC(=O)Nc3ccc(Oc4cc(NC(=O)C5CC5)ncn4)cc3)cc2C(F)(F)F)CC1 with Cellular tumor antigen p53 (Homo sapiens) and state it.
0.968 µM (active)

Find the measured Potency: item C[C@H]1[C@H](O)O[C@@H]2O[C@@]3(C)CC[C@@H]4[C@H](C)CC[C@@H]1[C@@]24OO3 , target or system Cellular tumor antigen p53 (Homo sapiens).
21.7 µM (active)

Kindly state the measured Potency obtained for Nc1cccc2c(N)cccc12 with Cellular tumor antigen p53 (Homo sapiens).
28.2 µM (active)

Notebook: pull reported Potency for Cellular tumor antigen p53 (Homo sapiens), entry C=C1C(=O)OC2/C=C(\CO)CC/C=C(\C=O)CC(OC(=O)CC(C)C)C12 (stereo unspecified)
14.8 µM (active)

Recorded Potency for NC(=NCCCCCCN=C(N)/N=C(\N)Nc1ccc(Cl)cc1)/N=C(\N)Nc1ccc(Cl)cc1 with Cellular tumor antigen p53 (Homo sapiens), please?
30.1 µM (active)

For the record c1cc(Nc2cc(C3CC3)[nH]n2)nc(Nc2ccc3nc[nH]c3c2)n1 , what value of Potency is listed for Cellular tumor antigen p53 (Homo sapiens)?
0.849 µM (active)

Cellular tumor antigen p53 (Homo sapiens) / Potency / C=C1C(=O)O[C@@H]2C3=C(C)CCC[C@]3(C)CC[C@@]12O : value?
16.9 µM (active)
